test system: Staphylococcus aureus MW2 delta-mecA (mecA-); assay: normalized GFP fluorescence (growth of mecA- strain) (fraction of control range); higher = more growth of mecA- strain; conditions: compound concentration: 150 uM; cefoxitin: subinhibitory; fluorescent label: GFP
Counter-ions that a name gives are not always drawn.
Assign class by normalized GFP fluorescence: not lower than 0.2 means True; lower than 0.2 means False.

Cc1cc(-c2ccccc2)nnc1NCCN1CCOCC1 ... True
CCc1nn(CCCN2CCN(c3cccc(Cl)c3)CC2)c(=O)n1CCOc1ccccc1 ... False
CCCC(CCC)C(=O)O [Valproic acid sodium salt (Sodium valproate)] ... True
Cc1ncc([N+](=O)[O-])n1CC(O)CCl (configuration not stated) ... True
CN(C)CCC[C@@]1(c2ccc(F)cc2)OCc2cc(C#N)ccc21 ... False
O=C(O)c1cccc(-c2noc(-c3ccccc3F)n2)c1 [PTC124 (Ataluren)] ... False

###

tested on: Staphylococcus aureus MW2 (mecA+); experiment: normalized DsRed fluorescence (growth of mecA+ strain) (fraction of control range); higher = more growth of mecA+ strain; settings: compound concentration: 150 uM; cefoxitin: subinhibitory; fluorescent label: DsRed
Parameter: normalized DsRed fluorescence

Cc1ccc(Nc2c(F)cccc2Cl)c(CC(=O)O)c1 ... 0.183
O=C(NCCN1CCOCC1)c1ccc(Cl)cc1 [Moclobemide] ... 0.739
Cc1[nH]c2ccccc2c1CCNCc1ccc(/C=C/C(=O)NO)cc1 [Panobinostat] ... 1.43
O=C1Cc2cc(CCN3CCN(c4nsc5ccccc45)CC3)c(Cl)cc2N1 ... 0.989
OCCN(CCO)c1nc(N2CCCCC2)c2nc(N(CCO)CCO)nc(N3CCCCC3)c2n1 ... 0.744
CC1=C(C(=O)O)N2C(=O)[C@@H](NC(=O)[C@H](N)c3ccc(O)cc3)[C@H]2SC1 ... 1.2
CCc1ccc(CCOc2ccc(CC3SC(=O)NC3=O)cc2)nc1 (stereo not given) ... 0.952
CCCCOc1ccc(C(=O)CCN2CCCCC2)cc1 ... 0.36
NS(=O)(=O)c1cc2c(cc1C(F)(F)F)NCNS2(=O)=O ... 0.753
N[C@H](C(=O)O)[C@H](O)c1ccc(O)c(O)c1 [Droxidopa (L-DOPS)] ... 1.79
O=C(NCC(O)CO)c1c(I)c(C(=O)NCC(O)CO)c(I)c(N(CCO)C(=O)CO)c1I (stereo not given) ... 1.04
CC(=O)OCC(CCn1cnc2cnc(N)nc21)COC(C)=O ... 0.667
CC(=O)N(CC(O)CO)c1c(I)c(C(=O)NCCO)c(I)c(C(=O)NCC(O)CO)c1I (stereo not given) ... 0.86
OC[C@H]1O[C@@H](O[C@@H]2[C@@H](CO)O[C@](O)(CO)[C@H]2O)[C@H](O)[C@@H](O)[C@H]1O ... 0.712
CN1C(C(=O)Nc2ccccn2)=C(O)c2sc(Cl)cc2S1(=O)=O ... 0.318

###

system: Staphylococcus aureus MW2 (mecA+); experiment: normalized DsRed fluorescence (growth of mecA+ strain) (fraction of control range); higher = more growth of mecA+ strain; conditions: compound concentration: 150 uM; cefoxitin: subinhibitory; fluorescent label: DsRed
Parameter: normalized DsRed fluorescence

C[C@@H]1CC(=O)NN=C1c1ccc(NN=C(C#N)C#N)cc1 ... 0.512
NC(=O)c1ccccc1O ... 0.666
CCOC(=O)[C@H](CCc1ccccc1)N[C@H]1CCc2ccccc2N(CC(=O)O)C1=O ... 1.44
C[C@@H](c1ncncc1F)[C@](O)(Cn1cncn1)c1ccc(F)cc1F ... 0.766
N=C(N)NC(=N)NCCc1ccccc1 ... 0.624
C=CC(N)CCC(=O)O (configuration not stated) ... 0.716
Nc1nc2[nH]cc(CCc3ccc(C(=O)N[C@@H](CCC(=O)O)C(=O)O)cc3)c2c(=O)[nH]1 ... 0.63
